- test_target: T1, full-length human APLNR (human, UniProt P35414 1-380)
- T1 sequence: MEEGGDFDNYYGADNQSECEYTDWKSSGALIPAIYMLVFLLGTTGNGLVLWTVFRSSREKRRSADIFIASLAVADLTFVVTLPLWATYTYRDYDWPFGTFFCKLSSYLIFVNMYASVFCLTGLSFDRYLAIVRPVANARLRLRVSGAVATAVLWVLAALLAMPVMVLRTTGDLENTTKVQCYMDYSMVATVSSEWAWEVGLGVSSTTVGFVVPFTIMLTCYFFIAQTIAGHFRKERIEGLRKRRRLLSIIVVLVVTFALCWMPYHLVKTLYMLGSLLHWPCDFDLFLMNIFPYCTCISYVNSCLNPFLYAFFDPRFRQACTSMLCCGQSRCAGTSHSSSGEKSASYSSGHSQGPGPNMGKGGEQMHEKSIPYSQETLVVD
- assay_name: cell-based or functional assay
measured_property: % Inhibition at 100 nM antibody, in the presence of 100 ρM Apelin (at 5 µM Forskolin) (%)
Numbers only, in %.

Looking up H2aM9227N (antibody, V domains shown, Human variable domains, mouse IgG2a Fc) VH: EVQLVESGGGLVQPGGSLRLSCAASGFTFSSFWMSWVRQVPGKGLEWVANIKQDGSEKYYVDSVKGRFTISRDNAKNSLYLQMNSLRAEDTAVYYCARDRFGYSFYDKGVRYYYGMDVWGQGTTVTVSS VL: DIQMTQSPSSLSVSVGDRVTITCRASQGIRNDLGWYQQKPGKAPKRLIYATSSLQSGVPSRFSGSGSGTEFTLTISGLQPEDFATYYCLQHNSYPRTFGQGTKVEIK , I found its % Inhibition at 100 nM antibody, in the presence of 100 ρM Apelin (at 5 µM Forskolin) recorded as 33

Values from patent US20190048074A1
